# measured target: S. pyogenes SKKanGAS, kanamycin survival, BacTiterGlo, 6 h
# protocol notes: S. pyogenes SKKanGAS kanamycin growth inhibitors – SKKanGAS strain, luminescence, dose confirmation, streptokinase promoter inhibitor project, dose response (AID 1902);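 also: lower survival reflects blocked streptokinase promoter driving kanamycin resistance gene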
Active and inactive are the calls of the source.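 The calls were made as follows: active = EC50 no more than a set limit of log units above the highest dose; inactive = the rest.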
reported metric: EC50

Exam item: Give EC50 for CCn1cc(C(=O)O)c(=O)c2cc(F)c(N/N=C/c3ccccc3[N+](=O)[O-])cc21
Marked response: 4.39 µM

Exam item: Give EC50 for O=C(N/N=C/c1c(O)n(Cc2ccccc2)c(=O)[nH]c1=O)c1ccccc1
Marked response: 8.62 µM

Exam item: Give EC50 for CCOC(=O)c1sc(N2C(=O)C(O)=C(C(=O)c3ccco3)C2c2cccc(Cl)c2)nc1C (configuration not stated)
Marked response: 5.26 µM

Exam item: Give EC50 for O=C(Nc1nnc(-c2ccco2)o1)c1ccc(Cl)cc1
Marked response: 1.21 µM

Exam item: Give EC50 for CC(C)CC(=O)NC(NC(=S)Nc1sc2c(c1C#N)CCCC2)C(Cl)(Cl)Cl (configuration not stated)
Marked response: 1.66 µM

Exam item: Give EC50 for Cc1cccc(N2CCN(C(=O)c3ccc4nc(N5CCCCC5)sc4c3)CC2)c1C
Marked response: 7.63 µM

Exam item: Give EC50 for O=C(CN(C(=O)Cn1nnc(-c2ccccc2F)n1)c1cccc2c1CCCC2)NCc1ccccc1
Marked response: 5.32 µM

Exam item: Give EC50 for O=C(Cn1nnc(-c2ccccc2)n1)N/N=C/c1cc([N+](=O)[O-])ccc1O
Marked response: 0.75 µM

Exam item: Give EC50 for O=C(c1cc(-c2cccs2)nc2ccccc12)N1CCN(c2ccccc2O)CC1
Marked response: 13.4 µM

Exam item: Give EC50 for CCN(CC)c1ccc(/C=N/Nc2nc3ccccc3[nH]2)c(O)c1
Marked response: 3.17 µM

Exam item: Give EC50 for CCOC(=O)c1c(NC(=O)c2cccs2)sc2c1CCN(C(=O)OCC)C2
Marked response: 13 µM

Exam item: Give EC50 for COC(=O)C1=NN(C(=O)c2cccc(Br)c2)C(O)(c2ccc(Cl)cc2)C1 (configuration not stated)
Marked response: 1.29 µM

Exam item: Give EC50 for c1ccc(-c2nc(C3CCCCC3)c3sccc3n2)cc1
Marked response: 3.31 µM

Exam item: Give EC50 for CCc1c(C)sc2nc(C(C)C)nc(SCC(=O)N3CCc4ccccc4C3)c12
Marked response: 7.89 µM

Exam item: Give EC50 for CC(C)(C)OC(=O)[C@H](Cc1ccccc1)NC(=O)c1[nH]cnc1C(=O)Nc1ccc(Cl)cc1
Marked response: 3.52 µM

Exam item: Give EC50 for CCCC(=O)NC(c1ccc(Cl)cc1Cl)c1ccc2cccnc2c1O (configuration not stated)
Marked response: 0.912 µM

Exam item: Give EC50 for O=C(CC1SC(=Nc2ccccc2)N(CCc2c[nH]c3ccccc23)C1=O)Nc1ccccc1F (configuration not stated)
Marked response: 7.21 µM

Exam item: Give EC50 for C[C@H]1COC2=C1C(=O)C(=O)c1c2ccc2c1CCCC2(C)C
Marked response: 3.95 µM

Exam item: Give EC50 for Cc1ccc(-c2[nH]nc(N)c2N=Nc2ccccc2C)cc1
Marked response: 1.07 µM

Exam item: Give EC50 for Cn1ncc2c(Nc3cccc(Cl)c3)nc(Nc3cccc(Cl)c3)nc21
Marked response: 2.67 µM

Exam item: Give EC50 for O=C(CCCSc1ccccc1)Nc1nc(-c2ccccn2)cs1
Marked response: 6.17 µM

Exam item: Give EC50 for CCS(=O)(=O)N1Cc2ccccc2CC1C(=O)Nc1nnc(SCc2ccc(C#N)cc2)s1 (configuration not stated)
Marked response: 8.26 µM

Exam item: Give EC50 for Oc1ccc(/C=N/Nc2ccc3ccccc3c2)c(O)c1
Marked response: 7.53 µM

Exam item: Give EC50 for Cc1nc2c(-c3ccccc3)c(C)[nH]n2c(=O)c1Cc1ccccc1
Marked response: 6.27 µM

Exam item: Give EC50 for CCOc1ccc(C(=O)NC(=S)N(Cc2ccccc2)Cc2ccccc2)cc1
Marked response: 1.39 µM

Exam item: Give EC50 for C=C(C)COc1ccc(-c2[nH]ncc2Oc2ccc(OC)cc2)c(O)c1
Marked response: 4.05 µM

Exam item: Give EC50 for O=C(NC(c1ccccc1)c1cc(Cl)c2cccnc2c1O)c1cccnc1 (configuration not stated)
Marked response: 1.38 µM

Exam item: Give EC50 for FC(F)(F)c1cccc(NC(=S)N2CCCC2)c1
Marked response: > 15 µM (inactive)

Exam item: Give EC50 for Cc1ccccc1-n1nc(C(=O)c2cccs2)cc(-c2nc3ccccc3[nH]2)c1=N
Marked response: 1.59 µM

Exam item: Give EC50 for C/C(=N/Nc1nc(-c2ccccc2F)nc2ccccc12)c1ccccc1O
Marked response: 8.27 µM

Exam item: Give EC50 for CC1(C)CC(=O)C2=C(C1)c1c(ccc3ccccc13)NC2c1cc([N+](=O)[O-])cc([N+](=O)[O-])c1O (configuration not stated)
Marked response: 4.55 µM

Exam item: Give EC50 for O=C(CCCN1C(=O)/C(=C\c2cccs2)SC1=S)Nc1cc([N+](=O)[O-])ccc1O
Marked response: 5.04 µM
